- Target Or System: T1, PTK7 (His tag) (UniProt Q13308 31-704)
- T1 sequence: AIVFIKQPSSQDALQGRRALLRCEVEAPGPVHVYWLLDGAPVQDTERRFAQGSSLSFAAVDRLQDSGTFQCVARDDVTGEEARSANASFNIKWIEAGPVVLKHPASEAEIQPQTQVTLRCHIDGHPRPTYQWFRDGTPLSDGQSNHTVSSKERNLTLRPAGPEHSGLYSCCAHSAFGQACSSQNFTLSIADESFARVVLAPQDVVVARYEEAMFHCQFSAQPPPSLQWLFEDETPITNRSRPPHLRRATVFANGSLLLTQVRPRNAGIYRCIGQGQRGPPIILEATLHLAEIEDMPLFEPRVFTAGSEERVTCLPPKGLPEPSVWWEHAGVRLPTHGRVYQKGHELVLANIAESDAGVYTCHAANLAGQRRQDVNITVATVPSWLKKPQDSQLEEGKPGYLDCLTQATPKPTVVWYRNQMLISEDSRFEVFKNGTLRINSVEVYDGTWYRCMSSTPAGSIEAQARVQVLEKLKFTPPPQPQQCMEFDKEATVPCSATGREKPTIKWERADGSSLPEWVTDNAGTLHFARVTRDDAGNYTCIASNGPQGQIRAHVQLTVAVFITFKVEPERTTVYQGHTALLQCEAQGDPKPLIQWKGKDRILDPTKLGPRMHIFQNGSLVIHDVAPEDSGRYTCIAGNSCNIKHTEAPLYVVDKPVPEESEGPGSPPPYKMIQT
- Test Details: SPR
Readout: binding result

1. ATCTAACTACTGTGCCGCCGGGAAAATACTGTACGGTTAGA (structured_DNA) [G9A·C13T] :: no binding
2. ATCTAACTGTTACGCCGCCGGGAAAATACTGTACGGTTAGA (structured_DNA) [C10T·G12A] :: no binding
3. ATCTAACTGGTCCGCCGCCGGGAAAATACTGTACGGTTAGA (structured_DNA) [C10G·G12C] :: no binding
